System: Plasmodium falciparum
MEASUREMENT DESCRIPTION: Primary screen in NF54 nanoGlo assay, in single point, at 2uM, 72h; a lower Z score goes with more inhibition
Format: functional, Erythrocyte
CONDITIONS: timepoint 72 hour
The whole screen tested about 150,000 compounds, of which about 540 (0.36%) showed an effect of 50% or more. For the sample, strong results were picked, then their nearest neighbours and some compounds at random.
Please go through the items and note down their Z score.
# respond with the number and nothing more

Prompt: # lookup: Z score of CC(C)CCC(=O)N1CCC2CCN(C)CC21 (stereo not drawn)
Completion: 0.4

Prompt: # lookup: Z score of C[C@@H](Cc1ccccc1F)NCC1(CO)CCCC1
Completion: 0.57

Prompt: # lookup: Z score of Cn1nc(C(=O)N2CCC3(CC2)OCCO3)c2ccccc2c1=O
Completion: 2.25
